- assayedTarget: T1, EphB4 Fc (UniProt P54761 16-539)
- T1 chain: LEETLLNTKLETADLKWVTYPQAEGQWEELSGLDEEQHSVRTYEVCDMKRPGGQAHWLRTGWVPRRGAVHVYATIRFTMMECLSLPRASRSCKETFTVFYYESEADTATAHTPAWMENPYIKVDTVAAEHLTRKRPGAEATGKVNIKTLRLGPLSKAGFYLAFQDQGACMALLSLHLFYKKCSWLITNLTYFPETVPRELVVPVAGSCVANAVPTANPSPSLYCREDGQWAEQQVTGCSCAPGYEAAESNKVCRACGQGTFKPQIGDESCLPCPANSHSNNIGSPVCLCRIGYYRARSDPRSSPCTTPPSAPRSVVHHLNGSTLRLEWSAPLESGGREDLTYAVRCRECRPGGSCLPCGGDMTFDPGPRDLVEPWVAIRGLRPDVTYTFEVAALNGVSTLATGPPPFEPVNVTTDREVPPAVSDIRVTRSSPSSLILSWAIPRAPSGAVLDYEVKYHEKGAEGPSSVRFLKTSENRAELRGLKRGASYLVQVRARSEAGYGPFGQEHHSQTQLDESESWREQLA
- testDetails: ELISA
Square brackets hold non-standard residues; d marks the D form. Ends that are not written are not given here. * marks the point of attachment. Biotin = O=C1N[C@H]2[C@H](CS[C@H]2CCCCC(=O)*)N1; Ahx = NCCCCCC(=O)O
experimentalEndpoint: Kd (nM)

| binder | valueObserved |
| --- | --- |
| TNYLFSPNGPIARAW[Ahx]K(Biotin) [biotinylated TNYL-RAW peptide] | 2.7 |
| {PEG 40 kDa branched (NHS-glutaryl)}-TNYLFSPNGPIARAW [PEGylated TNYL-RAW (PEG-TNYL-RAW)] | 2.9 |
